Measured IC50 by item
- target: Human immunodeficiency virus type 1 integrase (Human immunodeficiency virus 1, UniProt Q7ZJM1)
- Sequence (Q7ZJM1 whole entry): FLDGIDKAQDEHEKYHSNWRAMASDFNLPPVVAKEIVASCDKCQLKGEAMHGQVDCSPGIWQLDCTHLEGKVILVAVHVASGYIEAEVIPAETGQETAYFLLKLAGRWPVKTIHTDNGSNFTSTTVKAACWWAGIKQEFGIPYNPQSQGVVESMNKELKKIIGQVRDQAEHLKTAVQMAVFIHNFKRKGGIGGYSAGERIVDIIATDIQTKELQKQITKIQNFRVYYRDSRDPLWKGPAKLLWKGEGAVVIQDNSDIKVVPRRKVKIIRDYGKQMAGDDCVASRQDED
- assayName: Inhibition of HIV-1 integrase catalytic activity incubated for 1 hrs in absence of LEDGF/p75 by HTRF assay

moleculeSmiles: O=C(O)/C(O)=C/C(=O)c1cn(Cc2ccc(F)cc2)c2ccc(C(=O)c3ccc(C(=O)O)cc3)cc2c1=O
inequalityOperator: =
IC50 / µM: 0.077

moleculeSmiles: O=C(O)/C(O)=C/C(=O)c1ccc2[nH]cc(C(=O)/C=C(\O)C(=O)O)c(=O)c2c1
inequalityOperator: =
IC50 / µM: 3.14

moleculeSmiles: O=C(O)c1cn(Cc2ccc(F)cc2)c2ccc(Oc3ccccc3)cc2c1=O
inequalityOperator: >
IC50 / µM: 200

moleculeSmiles: O=C(O)c1cn(Cc2ccc(F)cc2)c2ccc(OCc3ccc(OCc4ccccc4)cc3)cc2c1=O
inequalityOperator: =
IC50 / µM: 6.28

moleculeSmiles: O=C(O)c1cn(Cc2ccc(F)cc2)c2ccc(OCc3ccc(F)cc3)cc2c1=O
inequalityOperator: >
IC50 / µM: 200

moleculeSmiles: CCOC(=O)/C(O)=C/C(=O)c1cn(Cc2ccc(F)cc2)c2ccc(C(=O)c3ccc(C(=O)OCC)cc3)cc2c1=O
inequalityOperator: =
IC50 / µM: 0.741
